Entries and their A2780 SRB Max Inhibition
Test system: A2780 cells
Assay protocol: SRB binding assay, cytostasis, 48 h treatment
Format: cell-based
Cond: up to 100 μM, ND = not detectable
Measured parameter: A2780 SRB Max Inhibition (%)

molecule=Cc1ccc(C(C)C)cc1.F[P-](F)(F)(F)(F)F.N[C@@H]1[C@@H](OC(=O)c2ccccc2)[C@H](OC(=O)c2ccccc2)[C@@H](COC(=O)c2ccccc2)O[C@H]1c1cnccn1.[Cl][Os+] measured_parameter="A2780 SRB Max Inhibition" endpoint_unit=% qual== readout_number=80.44
molecule=N[C@@H]1[C@@H](OC(=O)c2ccccc2)[C@H](OC(=O)c2ccccc2)[C@@H](COC(=O)c2ccccc2)O[C@H]1c1ncccn1 measured_parameter="A2780 SRB Max Inhibition" endpoint_unit=% qual== readout_number=79.53
molecule="Cc1c(C)c(C)[c-](C)c1C.F[P-](F)(F)(F)(F)F.NC1C(c2cccnn2)OC(COC(=O)c2ccccc2)C(OC(=O)c2ccccc2)C1OC(=O)c1ccccc1.[Cl][Ir+2] (mixture of isomers)" measured_parameter="A2780 SRB Max Inhibition" endpoint_unit=% qual== readout_number=77.58
molecule=Cc1ccc(C(C)C)cc1.F[P-](F)(F)(F)(F)F.N[C@@H]1[C@@H](OC(=O)c2ccccc2)[C@H](OC(=O)c2ccccc2)[C@@H](COC(=O)c2ccccc2)O[C@H]1c1ccc2ccccc2n1.[Cl][Os+] measured_parameter="A2780 SRB Max Inhibition" endpoint_unit=% qual== readout_number=67.50
molecule=Cc1ccc(C(C)C)cc1.F[P-](F)(F)(F)(F)F.N[C@@H]1[C@@H](OC(=O)c2ccccc2)[C@H](OC(=O)c2ccccc2)[C@@H](COC(=O)c2ccccc2)O[C@H]1c1cnccn1.[Cl][Ru+] measured_parameter="A2780 SRB Max Inhibition" endpoint_unit=% qual== readout_number=80.44
molecule=Cc1ccc(C(C)C)cc1.F[P-](F)(F)(F)(F)F.N[C@@H]1[C@@H](OCc2ccccc2)[C@H](OCc2ccccc2)[C@@H](COCc2ccccc2)O[C@H]1c1ccccn1.[Cl][Ru+] measured_parameter="A2780 SRB Max Inhibition" endpoint_unit=% qual=> readout_number=90
molecule=Cc1c(C)c(C)[c-](C)c1C.F[P-](F)(F)(F)(F)F.N[C@@H]1[C@@H](OC(=O)c2ccccc2)[C@H](OC(=O)c2ccccc2)[C@@H](COC(=O)c2ccccc2)O[C@H]1c1ccc2ccccc2n1.[Cl][Rh+2] measured_parameter="A2780 SRB Max Inhibition" endpoint_unit=% qual== readout_number=67.32
molecule=N[C@@H]1[C@@H](OC(=O)c2ccccc2)[C@H](OC(=O)c2ccccc2)[C@@H](COC(=O)c2ccccc2)O[C@H]1c1ccccn1 measured_parameter="A2780 SRB Max Inhibition" endpoint_unit=% qual== readout_number=76.24
molecule=Cc1ccc(C(C)C)cc1.F[P-](F)(F)(F)(F)F.N[C@@H]1[C@@H](OC(=O)c2ccccc2)[C@H](OC(=O)c2ccccc2)[C@@H](COC(=O)c2ccccc2)O[C@H]1c1ccccn1.[Cl][Os+] measured_parameter="A2780 SRB Max Inhibition" endpoint_unit=% qual=> readout_number=90

* * *

Entries and their inhibition at 100 µM
Tested on: A2780 cells
Assay protocol: MTT reduction assay, early toxicity, 4 h treatment
Type: cell-based
Cond: Homo sapiens, inhibition at maximum concentration (100 μM) where no plateau, ND = not detectable, read-out: A2780 MTT Max Inhibition
Measured parameter: inhibition at 100 µM (%)

compound="N[C@@H]1[C@@H](OC(=O)c2ccccc2)[C@H](OC(=O)c2ccccc2)[C@@H](COC(=O)c2ccccc2)O[C@H]1c1cnccn1 [Complex 7d]" readout_number=18.1
compound="N[C@@H]1[C@@H](OCc2ccccc2)[C@H](OCc2ccccc2)[C@@H](COCc2ccccc2)O[C@H]1c1ccccn1 [Complex 3a]" readout_number=70.2
compound="N[C@@H]1[C@@H](OC(=O)c2ccccc2)[C@H](OC(=O)c2ccccc2)[C@@H](COC(=O)c2ccccc2)O[C@H]1c1ccc2ccccc2n1 [Complex 7e]" readout_number=13.6
